Provenance of the data: patent US20230000870A1

Target: CDK9/Cyclin T1 complex (Homo sapiens, UniProt P50750)
Sequence (P50750 whole entry): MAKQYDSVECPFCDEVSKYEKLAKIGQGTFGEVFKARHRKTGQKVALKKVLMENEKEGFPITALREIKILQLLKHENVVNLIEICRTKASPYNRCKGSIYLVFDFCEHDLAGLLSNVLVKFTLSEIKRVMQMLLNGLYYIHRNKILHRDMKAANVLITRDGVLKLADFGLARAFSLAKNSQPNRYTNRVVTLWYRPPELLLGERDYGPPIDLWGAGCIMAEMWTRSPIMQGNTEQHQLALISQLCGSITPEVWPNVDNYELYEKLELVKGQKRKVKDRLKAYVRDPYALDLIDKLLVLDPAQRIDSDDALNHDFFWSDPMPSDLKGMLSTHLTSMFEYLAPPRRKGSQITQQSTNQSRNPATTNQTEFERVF
Sequence (O60563 whole entry partner): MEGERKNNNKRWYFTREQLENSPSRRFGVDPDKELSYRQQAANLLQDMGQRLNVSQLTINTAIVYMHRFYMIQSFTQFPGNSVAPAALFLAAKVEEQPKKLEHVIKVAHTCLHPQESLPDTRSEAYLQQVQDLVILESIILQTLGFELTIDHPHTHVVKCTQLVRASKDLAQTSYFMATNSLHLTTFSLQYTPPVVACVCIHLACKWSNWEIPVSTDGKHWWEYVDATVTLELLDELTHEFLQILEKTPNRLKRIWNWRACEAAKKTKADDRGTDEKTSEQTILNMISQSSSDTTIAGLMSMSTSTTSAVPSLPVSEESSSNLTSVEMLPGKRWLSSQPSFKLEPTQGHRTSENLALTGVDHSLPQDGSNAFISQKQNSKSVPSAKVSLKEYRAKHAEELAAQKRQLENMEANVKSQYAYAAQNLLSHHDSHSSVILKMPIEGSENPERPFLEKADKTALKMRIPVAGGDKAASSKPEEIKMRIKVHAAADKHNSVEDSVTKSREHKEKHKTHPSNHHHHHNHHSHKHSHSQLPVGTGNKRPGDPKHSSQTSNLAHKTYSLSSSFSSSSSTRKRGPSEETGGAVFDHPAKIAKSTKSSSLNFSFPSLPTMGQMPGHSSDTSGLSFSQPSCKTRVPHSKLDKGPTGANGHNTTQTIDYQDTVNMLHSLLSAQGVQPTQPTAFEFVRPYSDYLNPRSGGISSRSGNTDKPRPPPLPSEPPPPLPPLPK
Experiment: CDK9 kinase inhibition assay (Caliper/LabChip EZ Reader)
Details: CDK9/Cyclin T1 8 nM, ATP 2 mM, 15 min at 27° C.
Each item that follows carries a reported IC50.

Illustrative cases are given below, each with its answer.
• CNC(=O)C1CNCC(Nc2ncc(C(F)(F)F)c(-c3c[nH]c4ccccc34)n2)C1 (stereo not drawn) [Compound 256] = ≥ 5 µM
• CC(C)C1CCC(Nc2nccc(-c3c[nH]c4ccccc34)n2)CN1 (stereo not drawn) = ≥ 5 µM

Lab note: next compound to report on.
Task item: IC50 for FC(F)(F)c1cnc(NC2CCCNC2)nc1-c1c[nH]c2cc(-c3ccnc4ccccc34)ccc12 (stereo not drawn) ?
Reply: ≥ 5 µM
